- target.or.system: T1, biotinylated Human PD-1/PDCD1 (Acro Biosystems, Cat# PD1-H82E4) (human, UniProt Q15116 25-167, biotinylated)
- T1 construct: Bought reagent; whole mature entry named
- T1 sequence (Q15116 25-167 limits assumed): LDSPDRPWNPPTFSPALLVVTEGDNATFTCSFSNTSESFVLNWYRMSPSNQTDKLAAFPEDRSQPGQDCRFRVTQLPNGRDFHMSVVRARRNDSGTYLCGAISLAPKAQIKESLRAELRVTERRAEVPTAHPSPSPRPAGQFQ
- protocol.details: Fab ELISA, Fab captured by anti-Fd(CH1) antibody, 5 nM biotinylated human PD-1, streptavidin-HRP chemiluminescence
test.readout: fold change in ELISA binding versus the parental Fab (fold)
Give a bare numeral; the unit fold is implied.

Request: Provide one value: measured fold change in ELISA binding versus the parental Fab of PD1B878 Fab variant with light chain PD1L651 (V29F) (Fab, V domains shown, Soluble Fab of the non-combinatorial CDR scan) VH: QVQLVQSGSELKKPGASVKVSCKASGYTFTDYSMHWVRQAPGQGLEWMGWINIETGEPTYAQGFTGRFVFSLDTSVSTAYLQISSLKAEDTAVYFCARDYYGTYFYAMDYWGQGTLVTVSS VL: EIVLTQSPATLSLSPGERATLSCTASSSFSSSYLHWYQQKPGLAPRLLIYSTSNLASGIPDRFSGSGSGTDYTLTISRLEPEDFAVYYCHQYHRSPLTFGQGTKLEIK
Response: 10
